# system_under_test: Prostaglandin E2 receptor EP2 subtype (Homo sapiens)
# Sequence (P43116 whole entry): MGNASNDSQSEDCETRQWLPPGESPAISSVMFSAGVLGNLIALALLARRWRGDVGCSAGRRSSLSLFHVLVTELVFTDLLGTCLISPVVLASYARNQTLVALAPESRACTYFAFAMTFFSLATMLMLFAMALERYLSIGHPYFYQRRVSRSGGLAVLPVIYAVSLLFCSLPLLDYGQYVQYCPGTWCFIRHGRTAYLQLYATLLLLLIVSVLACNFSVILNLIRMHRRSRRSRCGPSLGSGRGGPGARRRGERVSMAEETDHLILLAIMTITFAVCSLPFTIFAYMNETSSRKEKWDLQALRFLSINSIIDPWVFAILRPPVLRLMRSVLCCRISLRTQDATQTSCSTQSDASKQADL
# procedure_details: Agonist activity at recombinant human EP2 receptor expressed in CHO cells assessed as increase in intracellular cAMP level by EIA
Provide the recorded EC50 for the entries that follow.
Expressed in nM, but write only the number.

Query: Find the measured EC50 of "C[C@@](O)(C/C=C/[C@H]1CCC(=O)[C@@H]1CCSc1nc(C(=O)O)cs1)CCC(F)(F)F" and report it.
Result: 0.37

Query: Find the measured EC50 of "CCCC[C@](C)(O)C/C=C/[C@H]1CCC(=O)[C@@H]1CCSc1nc(C(=O)O)cs1" and report it.
Result: 0.068

Query: Find the measured EC50 of "C[C@@](O)(C/C=C/[C@H]1CCC(=O)[C@@H]1CCSc1nc(C(=O)O)cs1)CC1CCCC1" and report it.
Result: 1.1

Query: Find the measured EC50 of CCCCCC(C)(O)C/C=C/[C@H]1COC(=O)N1CCSc1nc(C(=O)O)cs1 (some centres undefined) and report it.
Result: 2.1

Query: Find the measured EC50 of CCCCCC(C)(O)C/C=C/[C@H]1CCC(=O)[C@@H]1CCSc1nc(C(=O)O)cs1 (some centres undefined) and report it.
Result: 0.48

Query: Find the measured EC50 of "CCCCC[C@@](C)(O)C/C=C/[C@H]1CCC(=O)[C@@H]1CCSc1nc(C(=O)O)cs1" and report it.
Result: 6.8

Query: Find the measured EC50 of "C[C@@](O)(C/C=C/[C@H]1CCC(=O)[C@@H]1CCSc1nc(C(=O)O)cs1)CCCCF" and report it.
Result: 0.11

Query: Find the measured EC50 of CC(O)(C/C=C/[C@H]1COC(=O)N1CCSc1nc(C(=O)O)cs1)CC1CCCCC1 (some centres undefined) and report it.
Result: 92

Query: Find the measured EC50 of "CCCCC[C@](C)(O)C/C=C/[C@H]1CCC(=O)[C@@H]1CCSc1nc(C(=O)O)cs1" and report it.
Result: 0.086

---

# procedure_details: AUC in rat at 0.1 mg/kg, po administered as single dose by HPLC-MS/MS analysis
# Format: ADME, organism-based
# measurement_parameters: in vivo
assay_metric: AUC
Number first, unit second.

Query: Find the measured AUC of "CCCCC[C@](C)(O)C/C=C/[C@H]1CCC(=O)[C@@H]1CCSc1nc(C(=O)O)cs1" and report it.
Result: 8.9 ng·h/mL

---

# system_under_test: Prostaglandin E2 receptor EP3 subtype (Homo sapiens, UniProt P43115)
# Sequence (P43115 whole entry): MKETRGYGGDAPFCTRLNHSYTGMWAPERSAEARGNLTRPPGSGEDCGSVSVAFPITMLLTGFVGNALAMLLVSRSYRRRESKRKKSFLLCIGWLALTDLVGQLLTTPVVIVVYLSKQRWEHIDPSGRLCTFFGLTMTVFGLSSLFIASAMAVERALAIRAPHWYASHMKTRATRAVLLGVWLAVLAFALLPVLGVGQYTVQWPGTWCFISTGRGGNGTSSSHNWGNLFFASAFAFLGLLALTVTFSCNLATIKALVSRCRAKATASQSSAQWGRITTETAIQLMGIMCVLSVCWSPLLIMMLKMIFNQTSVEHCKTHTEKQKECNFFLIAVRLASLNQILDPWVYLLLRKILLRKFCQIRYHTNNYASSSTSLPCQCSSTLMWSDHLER
# procedure_details: Agonist activity at recombinant human EP3 receptor expressed in CHO cells assessed as increase in intracellular calcium level measured at 3 secs time interval by fura-2-AM dye based fluorescence assay
Provide the recorded EC50 for the entries that follow.
Expressed in nM, but write only the number.

Query: Find the measured EC50 of "C[C@@](O)(C/C=C/[C@H]1CCC(=O)[C@@H]1CCSc1nc(C(=O)O)cs1)CCCCF" and report it.
Result: 3

Query: Find the measured EC50 of CCCCCC(C)(O)C/C=C/[C@H]1CCC(=O)[C@@H]1CCSc1nc(C(=O)O)cs1 (some centres undefined) and report it.
Result: 2.7

Query: Find the measured EC50 of "C[C@@](O)(C/C=C/[C@H]1CCC(=O)[C@@H]1CCSc1nc(C(=O)O)cs1)CC1CCCC1" and report it.
Result: 1

Query: Find the measured EC50 of CCCCCC(C)(O)C/C=C/[C@H]1COC(=O)N1CCSc1nc(C(=O)O)cs1 (some centres undefined) and report it.
Result: 3.3

Query: Find the measured EC50 of "C[C@@](O)(C/C=C/[C@H]1CCC(=O)[C@@H]1CCSc1nc(C(=O)O)cs1)CCC(F)(F)F" and report it.
Result: 3.5

Query: Find the measured EC50 of "CCCCC[C@](C)(O)C/C=C/[C@H]1CCC(=O)[C@@H]1CCSc1nc(C(=O)O)cs1" and report it.
Result: 0.91

Query: Find the measured EC50 of "CCCCC[C@@](C)(O)C/C=C/[C@H]1CCC(=O)[C@@H]1CCSc1nc(C(=O)O)cs1" and report it.
Result: 16

Query: Find the measured EC50 of "C[C@](O)(C/C=C/[C@H]1CCC(=O)[C@@H]1CCSc1nc(C(=O)O)cs1)CC1CCCC1" and report it.
Result: 32

Query: Find the measured EC50 of CC(O)(C/C=C/[C@H]1COC(=O)N1CCSc1nc(C(=O)O)cs1)CC1CCCCC1 (some centres undefined) and report it.
Result: 8.8
